| molecule | melting point |
| --- | --- |
| C1=C(c2c[nH]c3ccccc23)CCN(CC2COc3ccc4[nH]ccc4c3O2)C1 (stereo not given) | 126 °C |
| Cc1cc(C)n2ncc([N+](=O)[O-])c2n1 | 156 to 157 °C |
| CCOP(=O)(Cc1cc(=O)[nH]c2cc(Cl)c(Cl)cc12)OCC | 219 to 222 °C |
| CCOc1cc2cc(COC(C)=O)c(COC(C)=O)c(-c3ccncc3)c2cc1OCC | 115 to 116 °C |
| O=C(C[C@H]1CC[C@@H](C(=O)O)N1Cc1ccccc1)N[C@@H](Cc1ccc(OCc2c(Cl)cccc2Cl)cc1)C(=O)O | 198 to 202 °C |
